Biological target: T1, P6-AA-1HAA-T
T1 chain: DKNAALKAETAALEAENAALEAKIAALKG
Experiment: two-hybrid library CCmax;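 note: natural log of median RNA to DNA barcode read ratio; higher means stronger binding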
Settings: mean of both orientations
value_kind: interaction score

I: DENAALEAKAAALKAKNAALKAEIAALEG [P5-AA-1HAA-A]
II: DENAALEAKLAALKAKNAALKAEIAALEG [P5-AA-1HAA-L]
Q: Of I versus II , which is the one with smaller reported interaction score? Could you answer with the label of the item you picked?
Ans: I
(I: 0.325, II: 2.08)
